// data source = patent US20210261665A1

target_system: T1, hPD-1 mIg fusion protein (human; mouse, UniProt Q15116 25-170)
T1 construct: extracellular domain; not shown: CH2-CH3 domain of mouse IgG2a heavy chain (plasmid pmIgG)
T1 sequence (Q15116 25-170): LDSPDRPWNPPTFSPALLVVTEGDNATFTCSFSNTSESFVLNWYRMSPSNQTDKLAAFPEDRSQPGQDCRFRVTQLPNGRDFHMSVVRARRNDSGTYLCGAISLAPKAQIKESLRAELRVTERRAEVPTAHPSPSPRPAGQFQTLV
assay_method_text: SPR Biacore T100, hPD-1mIg immobilised by amine coupling, antibody as analyte
metric_name: koff (s⁻¹)
Answer with a number only, understood to be in s⁻¹.

// known answers, use as guide
[[record]]
binder = "Variant 3 (TY101) (antibody, V domains shown, Humanized; VH variant a, VK variant c; Constant regions not spelled out; chimeric parent has human IgG4-S228P and human kappa; also called mutant combination 3) VH: EVQLVESGGGLVQPGGSLRLSCAASGFTFSSYTMSWVRQAPGKGLEWVSYISHGGGDTYYADSVKGRFTISRDNSKNTLYLQMNSLRAEDTAVYYCARHSGYERGYYYVMDYWGQGTLVTVSS VL: DIQLTQSPDSLSVSLGERATINCKASESVDYYGFSFLNWFQQKPGQPPKLLIYAASNRQSGVPDRFSGSGSGTDFTLTISSLQAEDVAVYFCQQSKEVPWTFGQGTKLEIKR"
metric_name = "koff"
test_value = "2.33e-05"

[[record]]
binder = "Variant 7 (antibody, V domains shown, Humanized; VH variant c, VK variant a; Constant regions not spelled out; also called mutant combination 7) VH: EVKLLESGGGLVQPGGSLRLSCAASGFTFSSYTMSWVRQAPGKGLEWVSYISHGGGDTYYPDSVKGRFTISRDNSKNTLYLQMNSLRAEDTAVYYCARHSGYERGYYYVMDYWGKGTTVTVSS VL: DIVMTQSPDSLAVSLGERATINCKSSESVDYYGFSFLNWFQQKPGQPPKLLIYAASNRESGVPDRFSGSGSGTDFTLTISSLQAEDVAVYYCQQSKEVPWTFGQGTKLEIK"
metric_name = "koff"
test_value = "6.48e-05"


Then there is this binder:
Please list koff recorded for the binder Variant 1 (antibody, V domains shown, Humanized; Constant regions not spelled out for the humanized antibodies; the chimeric parent has human IgG4-S228P and human kappa; also called mutant combination 1) VH: EVQLVESGGGLVQPGGSLRLSCAASGFTFSSYTMSWVRQAPGKGLEWVSYISHGGGDTYYADSVKGRFTISRDNSKNTLYLQMNSLRAEDTAVYYCARHSGYERGYYYVMDYWGQGTLVTVSS VL: DIVMTQSPDSLAVSLGERATINCKSSESVDYYGFSFLNWFQQKPGQPPKLLIYAASNRESGVPDRFSGSGSGTDFTLTISSLQAEDVAVYYCQQSKEVPWTFGQGTKLEIKR 6.15e-05
